src = PubChem BioAssay (NCI)

Entries and their growth values follow.
Tested on: T-47D breast
Assay: NCI-60 one-dose screen, 48 h (100 = growth as untreated, 0 = no growth, -100 = all killed)
Conditions: 10 µM unless noted
This is part of a sample that, as a whole, favours compounds with a hit. Of some 83,000 tested, about 20% had one in any assay.
# output: bare number, implied unit %

CC[C@H](C)[C@@H]1NC(=O)[C@H](Cc2ccc(O)cc2)N(C)C(=O)[C@H](Cc2ccccc2)NC(=O)CN(C)C(=O)[C@@H]2CCCN2C(=O)[C@@H](Cc2ccccc2)N(C)C(=O)[C@H](CC(C)C)NC1=O : 0.772
O=C(O)/C=C\C(=O)N1C/C(=C\c2ccccc2Cl)C(=O)/C(=C/c2ccccc2Cl)C1 : 7.54
FC(F)(F)Oc1cccc(-c2cc(NCCCCCCNc3cc(-c4cccc(OC(F)(F)F)c4)nc4ccc(N5CCCC5)cc34)c3cc(N4CCCC4)ccc3n2)c1 : -46.4
COc1cc(NCCCN(CC(C)C)C2CCCC2)c2ncccc2c1 : 29.9
Cc1n[nH]c(C)c1-c1c(C)n[nH]c1C : 18.7
COc1ccc(C(=O)c2cc3c(N)c(C(=O)Nc4ccc(Br)cc4)sc3nc2C)cc1 : 70.6

Challenge: Please supply the value of reported growth for the item `Cc1ccc(S(=O)(=O)Nc2ccc(Cl)cc2)cc1`
Response given: 106

Challenge: Please supply the value of reported growth for the item Clc1ccc(N2N=C(c3cccc(Nc4ccncc4)c3)CC2c2ccccc2)cc1 (stereo not drawn)
Response given: 96.9

* * *

System: SF-295 CNS
Assay: NCI-60 one-dose screen, 48 h
Details: 10 µM unless noted
This is part of a sample that, as a whole, favours compounds with a hit. Of some 83,000 tested, about 20% had one in any assay. Calls of active or inactive are those of the source. How the source made its calls: active means growth percent below 10; inactive means the rest.
Classes to choose from: active, inactive

Here's what some known entries look like.
CC(=O)N1N=C(c2cccc(Nc3ccncc3)c2)CC1c1ccc2c(c1)OCO2 (centres undefined) : inactive
COc1cc2nc(-c3ccc(C(F)(F)F)cc3)cc(OCCCN3CCC(O)CC3)c2cc1OC : active
CN1C2CCC1CN(c1cnc(C(=O)Nc3cc(F)cc4cccnc34)cn1)C2 : inactive
O=C1c2ccccc2C(=O)c2c(NCCN=Cc3ccccc3O)cccc21 : active
COc1ccc2c(c1)c(CC(=O)NCCOCCOCC(=O)Nc1ccc(OC)c(C(N)=O)c1O)c(C)n2C(=O)c1ccc(Cl)cc1 : inactive

Challenge: Any idea what this test logged for CCN(CC)CCCC(Nc1c2ccc(Cl)cc2nc2ccc(OC)cc12)c1ccc(Cl)cc1 (centres undefined) ?
Response given: active

Challenge: Any idea what this test logged for `COc1ccc(Cl)cc1NC(=O)c1c(NC(=O)C(F)(F)C(F)(F)F)sc2c1CCCCC2` ?
Response given: active

Challenge: Any idea what this test logged for `CC(=O)O[C@H]1CC[C@@]2(C)[C@@H](CC[C@@H]3[C@@H]2CC[C@@]2(C)[C@H]3CC[C@]2(O)C(C)=O)C1` ?
Response given: inactive

Challenge: Any idea what this test logged for `COc1cc(-c2cc(=O)oc3cc(O)ccc23)c(OC)c2c1OCO2` ?
Response given: inactive

* * *

System: CAKI-1 renal
Experiment: NCI-60 one-dose screen, 48 h
Conditions: 10 µM unless noted
Compounds without any hit were thinned out: in the full panel of roughly 83,000, 20% have a hit. Calls of active or inactive are those of the source. How the source made its calls: active means growth percent below 10; inactive means the rest.
Classes to choose from: true (1) (active), false (0) (inactive)

Challenge: Any idea what this test logged for Cc1ccc(C2C3CC4CCCCC4N3[C@@]3(C(=O)Nc4cc(Cl)ccc43)C2C(=O)c2nc3ccccc3[nH]2)cc1 (stereo not given in full) ?
Response given: false (0)

* * *

System: HCT-15 colon
Assay: NCI-60 one-dose screen, 48 h
Settings: 10 µM unless noted
Experimental: Growth inhibition of the HCT-15 human tumor cell line is measured as a screen for anti-cancer activity. Cells are grown in 96 well plates and exposed to the test compound for 48 hours. Compounds are tested at a single concentration, which is 10^-5 M for most compounds. The reported endpoint is percent growth (GI% or GIPRCNT), where numbers from 0 - 100% represent growth inhibition, and numbers from -100% - 0 represent cell death. For example, a value of 40 represents 60% growth inhibition. […]
Compounds without any hit were thinned out: in the full panel of roughly 83,000, 20% have a hit. The source made the active and inactive calls. The calls were made as follows: active = growth percent below 10; inactive = the rest.
Classes to choose from: active, inactive

CC(=O)N1N=C(c2cccc(Nc3ccncc3)c2)CC1c1ccccc1 (centres undefined) : inactive
CCCCCCCC(=O)Nc1nc2[nH]c(CN3CCN(Cc4cccc(I)c4)CC3)c(CN3CCN(Cc4cccc(I)c4)CC3)c2c(=O)[nH]1 : active
CC1(C)NCCC[C@]2(C)[C@H]3CC=C4[C@@H]5C[C@@](C)(CO)CC[C@]5(C)CC[C@@]4(C)[C@]3(C)CC[C@@H]12 : inactive

Challenge: Any idea what this test logged for `COc1cc(Nc2cc(O)c3c(=O)cc(-c4ccccc4)oc3c2)cc(OC)c1` ?
Response given: inactive

* * *

Tested on: CCRF-CEM leukemia
Test: NCI-60 one-dose screen, 48 h
Conditions: 10 µM unless noted
About 83,000 compounds went through this panel and 20% of them were active in at least one assay; those are over-represented in the sample as a whole. Activity calls are given as the source filed them. Rule for the calls: active = growth percent below 10; inactive = the rest.
Classes to choose from: 1 for active, -1 for inactive

Here's what some known entries look like.
COc1c(Cl)cc(Cl)c2ccc(C=C3C(=O)N(C)C(=O)N(C)C3=O)nc12 : -1
C1=C2CNCC3=Cc4ccc5ccccc5c4OC23Oc2c1ccc1ccccc21 : -1
COc1cccc(CCC(=O)c2cc3c(N)c(C(=O)Nc4cccc(Cl)c4C)sc3nc2C)c1 : 1

Challenge: Any idea what this test logged for `CN(C)Cc1c(-c2ccccc2)[nH]c2ccccc12` ?
Response given: -1

Challenge: Any idea what this test logged for `CC(=O)c1c(C)[nH]c(-c2nc3ccc(N4CCN(C)CC4)cc3[nH]2)c1-c1ccccc1` ?
Response given: -1

Challenge: Any idea what this test logged for `COc1cc(C(=O)c2cnc(-c3ccc4cc[nH]c4c3)[nH]2)cc(OC)c1OC` ?
Response given: 1

Challenge: Any idea what this test logged for `CCC(=O)c1ccc(O)c(OC)c1` ?
Response given: -1

Challenge: Any idea what this test logged for `C=C(C)[C@@H]1CC[C@]2(C(=O)NCC(=O)OC)CC[C@]3(C)[C@H](CC[C@@H]4[C@@]5(C)Cc6c([nH]c7ccccc67)C(C)(C)[C@@H]5CC[C@]43C)[C@@H]12` ?
Response given: -1

Challenge: Any idea what this test logged for `COc1ccccc1/C=C1\COc2ccc(-c3ccccc3)cc2C1=O` ?
Response given: 1

Challenge: Any idea what this test logged for `CC1(C)CC[C@]2(C(=O)NCC#CCN3CCOCC3)CC[C@]3(C)C(=CC[C@@H]4[C@@]5(C)Cc6c([nH]c7ccccc67)C(C)(C)[C@@H]5CC[C@]43C)[C@@H]2C1` ?
Response given: -1

Challenge: Any idea what this test logged for `O=c1[nH]c(=O)[nH]c(=S)[nH]1` ?
Response given: -1

Challenge: Any idea what this test logged for CC(=O)N1c2ccccc2NC2=C(C(=O)N(C)C2(C)C)C1C (centres undefined) ?
Response given: -1

Challenge: Any idea what this test logged for `COc1ccc(-c2nc(N/N=C/c3ccco3)nc(N3CCOCC3)c2C#N)cc1` ?
Response given: -1

Challenge: Any idea what this test logged for `Cc1ccccc1-c1cc(Cc2ccc(F)cc2)c(=O)[nH]n1` ?
Response given: 1

Challenge: Any idea what this test logged for `COc1ccc(NC(=O)c2sc3nc(C)c(C(=O)CCc4cccc(OC)c4)cc3c2N)cc1` ?
Response given: -1

Challenge: Any idea what this test logged for `COc1cc2nc(-c3ccc(C#N)cc3)[nH]c(=O)c2cc1OC` ?
Response given: -1

Challenge: Any idea what this test logged for `CS(=O)(=O)c1ccc(-c2cc(-c3nnc(SCC(=O)Nc4ccc(C(=O)/C=C/c5ccc(Cl)cc5)cc4)n3-c3ccccc3)c3ccccc3n2)cc1` ?
Response given: -1

Challenge: Any idea what this test logged for `CC(C)(C)OC(=O)N1C/C(=C\c2ccoc2)C(=O)/C(=C/c2ccoc2)C1` ?
Response given: -1

Challenge: Any idea what this test logged for `CCOC(=O)c1c(SC)nn(-c2cc(=O)[nH]c3ccc(Br)cc23)c1N` ?
Response given: -1

* * *

Tested on: NCI-H522 lung
Assay: NCI-60 one-dose screen, 48 h
Details: 10 µM unless noted
This is part of a sample that, as a whole, favours compounds with a hit. Of some 83,000 tested, about 20% had one in any assay. The source made the active and inactive calls. How the source made its calls: active means growth percent below 10; inactive means the rest.
Classes to choose from: active, inactive

Here's what some known entries look like.
Cc1ccccc1C(c1ccccc1)c1ccccc1C : inactive
CC(=O)O[C@]1(C(C)=O)CC[C@H]2[C@@H]3C=C(Cl)C4=CC(=O)CC[C@]4(C)[C@H]3CC[C@@]21C : inactive
N#Cc1c(Nc2ccccc2)nn2cc(-c3nc4ccccc4s3)c(N)nc12 : inactive
CCN(CCNc1cc(OC)cc2cccnc12)CCc1ccccc1 : inactive
CC(C)(O)C1CCCN1C(=O)c1ccccc1I (stereo not drawn) : inactive
COC(=O)Nc1ccc(NC(=O)OC)cc1 : inactive

Challenge: Any idea what this test logged for `CCc1c(Nc2ccc(C)cc2)[nH]c(N)nc1=S` ?
Response given: inactive

Challenge: Any idea what this test logged for `CCOC(=O)c1cnc2c(cnn2CC)c1NN=C(C)C` ?
Response given: inactive

Challenge: Any idea what this test logged for `C#CCn1cc(C=C2C(=O)NC(=S)NC2=O)c2cc(Cl)ccc21` ?
Response given: inactive

Challenge: Any idea what this test logged for `Cc1c2c(cc[n+]1Cc1ccccc1)c1ccc(OCc3ccccc3)cc1n2Cc1ccccc1` ?
Response given: active

Challenge: Any idea what this test logged for `COc1ccccc1-c1c(-c2ccc(Cl)cc2)c2cc3c(cc2[nH]c1=O)OCCO3` ?
Response given: inactive

Challenge: Any idea what this test logged for `CC1(C)[C@H](O)CC[C@]2(C)[C@@H]1CC[C@@]13C[C@@H](CC[C@H]12)[C@@](O)(CO)C3` ?
Response given: inactive

Challenge: Any idea what this test logged for `CC(C)(C)CC(C)(C)Nc1c(-c2ccc3c(c2)OCO3)nc2cnccn12` ?
Response given: inactive

Challenge: Any idea what this test logged for COc1ccc(NC(=O)c2sc3nc(C)c(C(O)c4ccc(OC)cc4)cc3c2N)cc1 (stereo not drawn) ?
Response given: active

Challenge: Any idea what this test logged for CC(C)Cc1ccc(C(C)C(=O)NCc2c[nH]c3ccc(Cl)cc23)cc1 (stereo not drawn) ?
Response given: inactive

Challenge: Any idea what this test logged for `O=C1/C(=C\c2cn(Cc3ccccc3)c3ccc(Br)cc23)c2ccccc2N1c1c(Cl)cccc1Cl` ?
Response given: inactive
